Test system: HCI09 (cells of a triple-negative luminal androgen receptor type breast cancer xenograft)
test summary: cell viability (% of vehicle); higher = less cytotoxic
conditions used: 10 µM; 72 h
Counter-ions that a name gives are not always drawn.
measure name: cell viability
Kindly provide the number alone.

Query: # value lookup — system HCI09, readout cell viability, item CCc1ccc(CCOc2ccc(CC3SC(=O)NC3=O)cc2)nc1.Cl (stereo not given) [Pioglitazone HCl]
Response: 93.7

Query: Also, "CC1(C)CCC(CN2CCN(c3ccc(C(=O)NS(=O)(=O)c4ccc(NCC5CCOCC5)c([N+](=O)[O-])c4)c(Oc4cnc5[nH]ccc5c4)c3)CC2)=C(c2ccc(Cl)cc2)C1" please.
Response: 61.5

Query: Also, CCCOc1ccc(C(=O)OCCN(CC)CC)cc1N.Cl [Proparacaine HCl] please.
Response: 91

Query: Also, CN(C)CCOC(C)(c1ccccc1)c1ccccn1.O=C(O)CCC(=O)O (stereo not given) [Doxylamine Succinate] please.
Response: 101

Query: Also, CC(C)NCC(O)COc1ccc(CCOCC2CC2)cc1.Cl (stereo not given) [Levobetaxolol HCl] please.
Response: 112

Query: Also, CCCNC1CCc2nc(N)sc2C1 (stereo not given) [Pramipexole] please.
Response: 113

Query: Also, "CC(=O)O[C@H]1C(=O)[C@@]2(C)[C@H]([C@H](OC(=O)c3ccccc3)[C@]3(O)C[C@H](OC(=O)[C@H](O)[C@@H](NC(=O)c4ccccc4)c4ccccc4)C(C)=C1C3(C)C)[C@]1(OC(C)=O)CO[C@@H]1C[C@@H]2O" please.
Response: 95

Query: Also, "CS(=O)(=O)OCCCCOS(C)(=O)=O" please.
Response: 117

Query: Also, NC(=O)N1CCC(CC(=O)N2CCC(C3c4ncc(Br)cc4CCc4cc(Cl)cc(Br)c43)CC2)CC1 (stereo not given) please.
Response: 12.8

Query: Also, Cl.Nc1c2c(nc3ccccc13)CCCC2 [Tacrine hydrochloride] please.
Response: 90.7

Query: Also, Cl.O=S(=O)(c1cccc2cnccc12)N1CCCNCC1 [Fasudil (HA-1077) HCl] please.
Response: 69.3

Query: Also, Nc1cccc2c1CN(C1CCC(=O)NC1=O)C2=O (stereo not given) [Lenalidomide (CC-5013)] please.
Response: 85.5

Query: Also, "O=C(O)c1cc(O)c(O)c(O)c1" please.
Response: 90.8

Query: Also, CCc1c2c(nc3ccc(OC(=O)N4CCC(N5CCCCC5)CC4)cc13)-c1cc3c(c(=O)n1C2)COC(=O)[C@]3(O)CC [Irinotecan HCl Trihydrate] please.
Response: 120

Query: Also, COC(=O)C1C2CC3c4[nH]c5cc(OC)ccc5c4CCN3CC2CC(OC(=O)c2cc(OC)c(OC)c(OC)c2)C1OC.Cl (stereo not given) [Reserpine hydrochloride] please.
Response: 66.7

---

Tested on: HCI11 (cells of an ER-positive luminal breast cancer xenograft)
test summary: cell viability (% of vehicle); higher = less cytotoxic
conditions used: 10 µM; 72 h
The label is Yes for cell viability below 90 and No for cell viability equal to or exceeding 90.

Query: I wonder whether CC(=O)O.CC(=O)O.CCC(C)CC(C)CCCCCCCCC(=O)NC1CC(O)C(NCCN)NC(=O)C2C(O)CCN2C(=O)C(C(O)CCN)NC(=O)C(C(O)C(O)c2ccc(O)cc2)NC(=O)C2CC(O)CN2C(=O)C(C(C)O)NC1=O (stereo unspecified) [Caspofungin Acetate] has cell viability below 90. Can you tell?
Response: Yes

Query: Also, "Cc1ccnc2c1NC(=O)c1cccnc1N2C1CC1" please.
Response: No

---

What cell viability was measured for each of the following?
Test system: WHIM2 (cells of a triple-negative basal-like breast cancer xenograft);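 note: cells dissociated from PDX tumors propagated in female NSG mouse mammary fat pads, vehicle control 0.1% DMSO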
test summary: cell viability (% of vehicle); higher = less cytotoxic
conditions used: 1 µM; 72 h
Kindly provide the number alone.

Query: Can you share its cell viability? I mean this compound: COC(=O)C12CCC(C)(C)CC1C1C(=O)C=C3C4(C)C=C(C#N)C(=O)C(C)(C)C4CCC3(C)C1(C)CC2 (centres undefined)
Response: 59.9

Query: Also, CO[C@H]1C[C@@H]2CC[C@@H](C)[C@@](O)(O2)C(=O)C(=O)N2CCCC[C@H]2C(=O)O[C@H]([C@H](C)C[C@@H]2CC[C@@H](O)[C@H](OC)C2)CC(=O)[C@H](C)/C=C(\C)[C@@H](O)[C@@H](OC)C(=O)[C@H](C)C[C@H](C)/C=C/C=C/C=C/1C [Rapamycin (Sirolimus)] please.
Response: 68.3

Query: Also, "CCCCCCCCCCCCCCCCOP(=O)([O-])OCC[N+](C)(C)C" please.
Response: 85.8

Query: Also, "O=C(C=Cn1cnc(-c2cc(C(F)(F)F)cc(C(F)(F)F)c2)n1)NNc1cnccn1" please.
Response: 66.1

---

Test system: HCI13 (cells of an ER-positive luminal breast cancer xenograft)
test summary: cell viability (% of vehicle); higher = less cytotoxic
conditions used: 10 µM; 72 h
Counter-ions that a name gives are not always drawn.
The label is 1 for cell viability below 100 and -1 for cell viability equal to or exceeding 100.

Query: I wonder whether "COc1cc(NS(=O)(=O)c2ccc(N)cc2)nc(OC)n1" has cell viability below 100. Can you tell?
Response: -1

Query: Also, "CN(C)NN=C1N=CN=C1C(N)=O" please.
Response: -1

Query: Also, "CC(=O)Oc1cc(C(F)(F)F)ccc1C(=O)O" please.
Response: -1

Query: Also, CCCC1CC(C(=O)NC(C(C)Cl)C2OC(SC)C(O)C(O)C2O)N(C)C1.Cl (stereo unspecified) [Clindamycin HCl] please.
Response: 1

Query: Also, CC#CCn1c(N2CCCC(N)C2)nc2c1c(=O)n(Cc1nc(C)c3ccccc3n1)c(=O)n2C (stereo unspecified) please.
Response: -1

Query: Also, OCCN1CC(O)C(O)C(O)C1CO (stereo unspecified) please.
Response: -1

Query: Also, CNNCc1ccc(C(=O)NC(C)C)cc1.Cl [Procarbazine HCl] please.
Response: -1

Query: Also, "CC1(C)CCC(CN2CCN(c3ccc(C(=O)NS(=O)(=O)c4ccc(NCC5CCOCC5)c([N+](=O)[O-])c4)c(Oc4cnc5[nH]ccc5c4)c3)CC2)=C(c2ccc(Cl)cc2)C1" please.
Response: -1

Query: Also, Cc1cn(C2CC(O)C(CO)O2)c(=O)[nH]c1=O (stereo unspecified) please.
Response: -1

Query: Also, CCCCc1oc2ccc(NS(C)(=O)=O)cc2c1C(=O)c1ccc(OCCCN(CCCC)CCCC)cc1.Cl [Dronedarone HCl] please.
Response: 1

Query: Also, "O=C(O)c1cccnc1Nc1cccc(C(F)(F)F)c1" please.
Response: -1

Query: Also, CC(NC(=O)Cc1cc(F)cc(F)c1)C(=O)NC(C(=O)OC(C)(C)C)c1ccccc1 (stereo unspecified) please.
Response: -1

Query: Also, "COc1ccc(-n2nc(C(N)=O)c3c2C(=O)N(c2ccc(N4CCCCC4=O)cc2)CC3)cc1" please.
Response: -1

Query: Also, Nc1ccn([C@@H]2O[C@H](CO)[C@@H](O)C2(F)F)c(=O)n1 [Gemcitabine HCl] please.
Response: 1

Query: Also, "C1=C\COCc2cc(ccc2OCCN2CCCC2)Nc2nccc(n2)-c2cccc(c2)COC/1" please.
Response: 1

Query: Also, CC1c2cccc(O)c2C(O)=C2C(=O)C3(O)C(O)=C(C(N)=O)C(=O)C(N(C)C)C3C(O)C21.Cl (stereo unspecified) [Doxycycline hyclate] please.
Response: -1

Query: Also, Cc1ccc(C(=O)C(C)CN2CCCCC2)cc1.Cl (stereo unspecified) [Tolperisone HCl] please.
Response: 1

Query: Also, Cc1cc(C(C)(C)C)cc(C)c1CC1=NCCN1.Cl [Xylometazoline HCl] please.
Response: -1

Query: Also, CCCCOc1ccc(C(=O)CCN2CCCCC2)cc1.Cl [Dyclonine HCl] please.
Response: 1

Query: Also, Cl.Clc1ccccc1CN1CCc2sccc2C1 [Ticlopidine HCl] please.
Response: -1

Query: Also, CS(=O)(=O)O.Cc1ccc(NC(=O)c2ccc(CN3CCN(C)CC3)cc2)cc1Nc1nccc(-c2cccnc2)n1 [Imatinib Mesylate (STI571)] please.
Response: 1

Query: Also, "CC1(C)CCC(C)(C)c2cc(NC(=O)c3ccc(C(=O)O)cc3)ccc21" please.
Response: 1

Query: Also, CN1C2CCCC1CC(NC(=O)c1nn(C)c3ccccc13)C2 (stereo unspecified) please.
Response: -1

Query: Also, CCC(C)C(=O)OC1CC(O)C=C2C=CC(C)C(CCC(O)CC(O)CC(=O)[O-])C21.[Na+] (stereo unspecified) [Pravastatin sodium] please.
Response: -1

Query: Also, C=C1CCC(O)CC1=CC=C1CCCC2(C)C1CCC2C(C)C=CC(C)C(C)C (stereo unspecified) [Vitamin D2 (Ergocalciferol)] please.
Response: 1

Query: Also, O=C(CCCCCCC(=O)Nc1ccccc1)NO [Vorinostat (SAHA, MK0683)] please.
Response: 1

Query: Also, Nc1nc(Cl)nc2c1ncn2C1CC(O)C(CO)O1 (stereo unspecified) please.
Response: -1
